I'd appreciate it if you could supply % inhibition H3N8 values for the items below.
Tested on: H3N8 A/Miami/2/63
experimentalConditions: A/Miami/2/63, 48 h, 500 μM
Bridge positions count the residues as written; N and C are the ends. Square brackets hold non-standard residues; d marks the D form. Peptide text beside a SMILES is read from it.
Numbers only, in %.

[
  {
    "molecule": "CC[C@@H](C)[C@H]1NC(=O)[C@@H](Cc2ccccc2)NC(=O)[C@@H](CCCNC(=N)N)NC(=O)[C@@H](CO)NC(=O)[C@@H]([C@H](C)O)NC(=O)[C@@H]([C@H](C)O)NC(=O)[C@H](NC(=O)[C@@H](CCCCN)NC(=O)[C@@H](CCCCN)NC(=O)[C@@H](CCCNC(=N)N)NC(=O)[C@H](N)CCCNC(=N)N)CSSC[C@H](C(=O)O)NC(=O)[C@@H](CC(N)=O)NC1=O [PSP II A17, H-rrkkcttsrfinc-OH] (H-[dR][dR][dK][dK][dC][dT][dT][dS][dR][dF][dI][dN][dC]-OH; disulfide 5-13)",
    "unitAbbrev": "%",
    "% inhibition H3N8": 70.6
  }
]

Input line: Reported % inhibition H3N8, molecule CC[C@@H](C)[C@H]1NC(=O)[C@@H](Cc2ccccc2)NC(=O)[C@@H](CCCNC(=N)N)NC(=O)[C@@H](CO)NC(=O)[C@H]2CCCN2C(=O)[C@@H]([C@H](C)O)NC(=O)[C@H](NC(=O)[C@@H](CCCCN)NC(=O)[C@@H](CCCCN)NC(=O)[C@@H](CCCNC(=N)N)NC(=O)[C@H](N)CCCNC(=N)N)CSSC[C@H](C(=O)O)NC(=O)[C@@H](CC(N)=O)NC1=O [PSP II A13, H-rrkkctpsrfinc-OH] (H-[dR][dR][dK][dK][dC][dT][dP][dS][dR][dF][dI][dN][dC]-OH; disulfide 5-13) : ____
Output line: 97

* * *

System: H3N8 A/Miami/2/63
experimentalConditions: A/Miami/2/63, 48 h, 500 μM
Bridge positions count the residues as written; N and C are the ends. Square brackets hold non-standard residues; d marks the D form. Peptide text beside a SMILES is read from it.
assayMetric: % inhibition H3N8 (%)
One number for each entry, in %.

[
  {
    "molecule": "CC[C@@H](C)[C@H]1NC(=O)[C@@H](Cc2ccccc2)NC(=O)[C@@H](CCCNC(=N)N)NC(=O)[C@@H](CO)NC(=O)[C@@H](CC(=O)O)NC(=O)[C@@H]([C@H](C)O)NC(=O)[C@H](NC(=O)[C@@H](CCCCN)NC(=O)[C@@H](CCCCN)NC(=O)[C@@H](CCCNC(=N)N)NC(=O)[C@H](N)CCCNC(=N)N)CSSC[C@H](C(=O)O)NC(=O)[C@@H](CC(N)=O)NC1=O [PSP II A3, H-rrkkctdsrfinc-OH] (H-[dR][dR][dK][dK][dC][dT][dD][dS][dR][dF][dI][dN][dC]-OH; disulfide 5-13)",
    "target": "H3N8 A/Miami/2/63",
    "reading": 85.2
  }
]

For each entry beneath this line, provide reported % inhibition H3N8.
1. C[C@H](O)[C@H]1NC(=O)[C@H](N)CSSC[C@H](C(=O)O)NC(=O)[C@@H](CC(N)=O)NC(=O)[C@@H](Cc2c[nH]c3ccccc23)NC(=O)[C@@H](Cc2ccccc2)NC(=O)[C@@H](CCCNC(=N)N)NC(=O)[C@@H](CO)NC(=O)[C@@H](CCCCN)NC1=O [PSP 19, H-ctksrfwnc-OH] (H-[dC][dT][dK][dS][dR][dF][dW][dN][dC]-OH; disulfide 1-9)
2. CC[C@@H](C)[C@H]1NC(=O)[C@@H](Cc2ccccc2)NC(=O)[C@@H](CCCNC(=N)N)NC(=O)[C@@H](CO)NC(=O)[C@@H](Cc2ccccc2)NC(=O)[C@@H]([C@H](C)O)NC(=O)[C@H](NC(=O)[C@@H](CCCCN)NC(=O)[C@@H](CCCCN)NC(=O)[C@@H](CCCNC(=N)N)NC(=O)[C@H](N)CCCNC(=N)N)CSSC[C@H](C(=O)O)NC(=O)[C@@H](CC(N)=O)NC1=O [PSP II A5, H-rrkkctfsrfinc-OH] (H-[dR][dR][dK][dK][dC][dT][dF][dS][dR][dF][dI][dN][dC]-OH; disulfide 5-13)
3. C[C@H](O)[C@H]1NC(=O)[C@H](N)CSSC[C@H](C(=O)O)NC(=O)[C@@H](CC(N)=O)NC(=O)[C@@H](CCC(=O)O)NC(=O)[C@@H](Cc2ccccc2)NC(=O)[C@@H](CCCNC(=N)N)NC(=O)[C@@H](CO)NC(=O)[C@@H](CCCCN)NC1=O [PSP 4, H-ctksrfenc-OH] (H-[dC][dT][dK][dS][dR][dF][dE][dN][dC]-OH; disulfide 1-9)
4. CC[C@@H](C)[C@H]1NC(=O)[C@@H](Cc2ccccc2)NC(=O)[C@@H](CCCNC(=N)N)NC(=O)[C@@H](CO)NC(=O)[C@@H](CC(C)C)NC(=O)[C@@H]([C@H](C)O)NC(=O)[C@H](NC(=O)[C@@H](CCCCN)NC(=O)[C@@H](CCCCN)NC(=O)[C@@H](CCCNC(=N)N)NC(=O)[C@H](N)CCCNC(=N)N)CSSC[C@H](C(=O)O)NC(=O)[C@@H](CC(N)=O)NC1=O [PSP II A10, H-rrkkctisrfinc-OH] (H-[dR][dR][dK][dK][dC][dT][dL][dS][dR][dF][dI][dN][dC]-OH; disulfide 5-13)

Output line:
1: 78.4; 2: 100; 3: 64; 4: 88.9

* * *

Test system: H3N8 A/Miami/2/63
experimentalConditions: A/Miami/2/63, 48 h, 500 μM
Bridge positions count the residues as written; N and C are the ends. Square brackets hold non-standard residues; d marks the D form. Peptide text beside a SMILES is read from it.
Give fulfilled when the value for % inhibition H3N8 is at least 70%. Give not fulfilled when it is less.

Previously resolved entries follow.
[
  {
    "compound": "CC[C@@H](C)[C@H]1NC(=O)[C@@H](Cc2ccccc2)NC(=O)[C@@H](CCCNC(=N)N)NC(=O)[C@@H](CO)NC(=O)[C@@H](CCC(=O)O)NC(=O)[C@@H]([C@H](C)O)NC(=O)[C@H](NC(=O)[C@@H](CCCCN)NC(=O)[C@@H](CCCCN)NC(=O)[C@@H](CCCNC(=N)N)NC(=O)[C@H](N)CCCNC(=N)N)CSSC[C@H](C(=O)O)NC(=O)[C@@H](CC(N)=O)NC1=O [PSP II A4, H-rrkkctesrfinc-OH] (H-[dR][dR][dK][dK][dC][dT][dE][dS][dR][dF][dI][dN][dC]-OH; disulfide 5-13)",
    "target": "H3N8 A/Miami/2/63",
    "cat": "fulfilled"
  },
  {
    "compound": "CC[C@@H](C)[C@H]1NC(=O)[C@@H](Cc2ccccc2)NC(=O)[C@@H](CCCNC(=N)N)NC(=O)[C@@H](CO)NC(=O)[C@@H](C(C)C)NC(=O)[C@@H]([C@H](C)O)NC(=O)[C@H](NC(=O)[C@@H](CCCCN)NC(=O)[C@@H](CCCCN)NC(=O)[C@@H](CCCNC(=N)N)NC(=O)[C@H](N)CCCNC(=N)N)CSSC[C@H](C(=O)O)NC(=O)[C@@H](CC(N)=O)NC1=O [PSP II A18, H-rrkkctvsrfinc-OH] (H-[dR][dR][dK][dK][dC][dT][dV][dS][dR][dF][dI][dN][dC]-OH; disulfide 5-13)",
    "target": "H3N8 A/Miami/2/63",
    "cat": "not fulfilled"
  },
  {
    "compound": "C[C@H](O)[C@H]1NC(=O)[C@H](N)CSSC[C@H](C(=O)O)NC(=O)[C@@H](CC(N)=O)NC(=O)[C@@H](CCC(N)=O)NC(=O)[C@@H](Cc2ccccc2)NC(=O)[C@@H](CCCNC(=N)N)NC(=O)[C@@H](CO)NC(=O)[C@@H](CCCCN)NC1=O [PSP 14, H-ctksrfqnc-OH] (H-[dC][dT][dK][dS][dR][dF][dQ][dN][dC]-OH; disulfide 1-9)",
    "target": "H3N8 A/Miami/2/63",
    "cat": "not fulfilled"
  },
  {
    "compound": "C[C@H](O)[C@H]1NC(=O)[C@H](N)CSSC[C@H](C(=O)O)NC(=O)[C@@H](CC(N)=O)NC(=O)[C@@H](C)NC(=O)[C@@H](Cc2ccccc2)NC(=O)[C@@H](CCCNC(=N)N)NC(=O)[C@@H](CO)NC(=O)[C@@H](CCCCN)NC1=O [PSP 1, H-ctksrfanc-OH] (H-[dC][dT][dK][dS][dR][dF][dA][dN][dC]-OH; disulfide 1-9)",
    "target": "H3N8 A/Miami/2/63",
    "cat": "fulfilled"
  },
  {
    "compound": "CC[C@@H](C)[C@H]1NC(=O)[C@@H](Cc2ccccc2)NC(=O)[C@@H](CCCNC(=N)N)NC(=O)[C@@H](CO)NC(=O)[C@@H](CO)NC(=O)[C@@H]([C@H](C)O)NC(=O)[C@H](NC(=O)[C@@H](CCCCN)NC(=O)[C@@H](CCCCN)NC(=O)[C@@H](CCCNC(=N)N)NC(=O)[C@H](N)CCCNC(=N)N)CSSC[C@H](C(=O)O)NC(=O)[C@@H](CC(N)=O)NC1=O [PSP II A16, H-rrkkctssrfinc-OH] (H-[dR][dR][dK][dK][dC][dT][dS][dS][dR][dF][dI][dN][dC]-OH; disulfide 5-13)",
    "target": "H3N8 A/Miami/2/63",
    "cat": "not fulfilled"
  }
]

Input line: Given C[C@H](O)[C@H]1NC(=O)[C@H](N)CSSC[C@H](C(=O)O)NC(=O)[C@@H](CC(N)=O)NC(=O)[C@@H](CC(=O)O)NC(=O)[C@@H](Cc2ccccc2)NC(=O)[C@@H](CCCNC(=N)N)NC(=O)[C@@H](CO)NC(=O)[C@@H](CCCCN)NC1=O [PSP 3, H-ctksrfdnc-OH] (H-[dC][dT][dK][dS][dR][dF][dD][dN][dC]-OH; disulfide 1-9) , state whether its % inhibition H3N8 is at least 70%.
Output line: not fulfilled

Input line: // inclusive: % inhibition H3N8 at least 70%? input: C[C@H](O)[C@H]1NC(=O)[C@H](N)CSSC[C@H](C(=O)O)NC(=O)[C@@H](CC(N)=O)NC(=O)[C@@H](Cc2ccc(O)cc2)NC(=O)[C@@H](Cc2ccccc2)NC(=O)[C@@H](CCCNC(=N)N)NC(=O)[C@@H](CO)NC(=O)[C@@H](CCCCN)NC1=O [PSP 20, H-ctksrfync-OH] (H-[dC][dT][dK][dS][dR][dF][dY][dN][dC]-OH; disulfide 1-9)
Output line: fulfilled

Source of measurements: patent US10538554B2
